test: soluble fraction after stress (log2 fold change); higher = more stays soluble; pooled small domains, quantitative proteomics; conditions: stress: 50 degC
Kind request: treat -0.3 as inclusive, so soluble fraction (log2) at -0.3 or higher is Condition met, anything lower is Condition not met.

- monomer.sequence: "HMEQIETIFLSAAPYARTHIIHLLETSELFRDKYLTIVETSNGLLIYTEDKNRLLGILNSLT"
  label.value: "Condition not met"
- monomer.sequence: "HMAQLTPREREVLVLIAEGKSNKEIADQLNIGVRTIETHRERIMRRLNIHSVAGLTKYAIANGLVTL"
  label.value: "Condition met"
- monomer.sequence: "HMKGISRVTMELIIDALKKETEPRTVQWIAEKTGLATQTTYRYLQYMVSEQTVEALNVYGKVVSLKAK"
  label.value: "Condition not met"
- monomer.sequence: "HMVLMPIDALRGSSSSSEMRIAAVKFSPSKGWYFSLQERSDEGSSYYEQKVASDGSVSERVKVR"
  label.value: "Condition not met"
- monomer.sequence: "HMSNLTDLVSAKEAEVYLHFLESGSTAGMTEAELRAVRKIEELIQSNKIDYNGILRIRNETVK"
  label.value: "Condition met"
- monomer.sequence: "HMDIVIPIQVKNVSSGEVLDFPSIRAAARDLKFPKTTISLGVRYAGEKAYKGFVMRYRSDDPWPIVQES"
  label.value: "Condition not met"
- monomer.sequence: "HMRKYKIKEELPDNIYKIIQDNPGIVQKDIYDILGREYQQNISSYIYSMDKNGVIKRDKHGNSYKLYL"
  label.value: "Condition not met"
- monomer.sequence: "HMPPFDDILAEYYEPLYRHVRRMVVSHDDAKDVMQEAMLRIFQGLDGLKDPSAVRTWVWRIATNEALRH"
  label.value: "Condition met"

Hey, just so you know, these numbers are from the domain aggregation screens of Martell et al. (2025).
